# measured on: Growth hormone secretagogue receptor type 1 (Homo sapiens, UniProt Q92847)
# Sequence (Q92847 whole entry): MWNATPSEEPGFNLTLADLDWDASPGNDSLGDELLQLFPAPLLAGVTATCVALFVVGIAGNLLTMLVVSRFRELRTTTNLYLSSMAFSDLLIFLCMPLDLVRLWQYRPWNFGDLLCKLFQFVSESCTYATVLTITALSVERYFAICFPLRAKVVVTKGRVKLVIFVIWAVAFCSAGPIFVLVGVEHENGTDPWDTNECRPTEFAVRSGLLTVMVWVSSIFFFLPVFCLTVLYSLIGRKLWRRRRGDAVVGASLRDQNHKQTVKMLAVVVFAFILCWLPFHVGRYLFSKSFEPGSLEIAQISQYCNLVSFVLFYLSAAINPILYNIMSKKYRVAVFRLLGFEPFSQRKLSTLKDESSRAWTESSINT
# experiment description: Ability to inhibit ghrelin induced increase in intracellular [Ca2+] in CHO-K cells
# Format: functional, cell-based
result type: IC50 (nM)
Answers are plain numbers, in nM.

Quick note, IC50 for CCN(CC)[C@H]1CC[C@H](NC(=O)c2c(-c3c(Cl)cccc3Cl)noc2CCC2OCCCO2)CC1 landed at 3

----------
# measured on: Growth hormone secretagogue receptor type 1 (Homo sapiens)
# experiment description: Ability to inhibit ghrelin induced increase in intracellular [Ca2+] in CHO-K cells was determined by FLIPR assay
# Format: functional, cell-based
result type: IC50 (nM)
Answers are plain numbers, in nM.

- CCN(CC)c1ccc(NC(=O)c2c(-c3c(Cl)cccc3Cl)noc2CCc2ccc3c(c2)OCO3)cc1: 93

Could you tell me IC50 for each of these molecules? They are listed below.
1. CCN(CC)c1ccc(NC(=O)c2c(-c3c(Cl)cccc3Cl)noc2CCN2CCCCC2=O)cc1
2. CCN(CC)c1ccc(NC(=O)c2c(-c3c(Cl)cccc3Cl)noc2CCN2CCN(C)C2=O)cc1

Solution:
1. 8
2. 10

Quick batch: IC50 for everything below.
1. CCN(CC)[C@H]1CC[C@H](NC(=O)c2c(-c3c(Cl)cccc3Cl)noc2C)CC1
2. CCN(CC)c1ccc(NC(=O)c2c(-c3c(Cl)cccc3Cl)noc2CCN2CCCC2=O)cc1
3. CCN(CC)c1ccc(NC(=O)c2c(-c3c(Cl)cccc3Cl)noc2CCC2OCCCO2)cc1
4. CCN(CC)c1ccc(NC(=O)c2c(-c3c(Cl)cccc3Cl)noc2CCCO)cc1
5. CCN(CC)c1ccc(NC(=O)c2c(-c3c(Cl)cccc3Cl)noc2CCc2cccc3c2OCO3)cc1
6. CCN(CC)[C@H]1CC[C@H](NC(=O)c2c(-c3c(Cl)cccc3Cl)noc2CCc2ccc3c(c2)OCO3)CC1

Solution:
57
18
19
308
564
54
